tested on: primary human fibroblasts derived from IPF patients (LL29 cells) treated with TGF-β1; test: Inhibition of the fibrotic process: αSMA staining in TGF-β1 treated primary human fibroblasts from IPF patients (LL29 cells); format: cell-based; details: Fibroblast, 96 h, TGF-β1 20 ng/mL, 4 days, % αSMA positive cells
Kindly supply the reported pEC50 values for the records listed here.
Numbers only, as −log10 of the molar value.

Please review the following examples before continuing.
c1cncc(-c2ccc3[nH]nc(-c4cc5c(N6CCCCC6)cccc5[nH]4)c3n2)c1 ... 6.53
c1cc(-c2ccncc2)c2cc(-c3n[nH]c4ccc(-c5cncc(OCCN6CCCC6)c5)nc34)[nH]c2c1 ... 5.89

Below is a list of compounds. For each, state its recorded pEC50.
1. CCCCC(=O)Nc1cncc(-c2ccc3[nH]nc(-c4cc5ncccc5[nH]4)c3n2)c1
2. Fc1ccc(-c2cccc3[nH]c(-c4n[nH]c5ccc(-c6cncnc6)nc45)cc23)cc1
3. O=C(Nc1cncc(-c2ccc3[nH]nc(-c4cc5c(-c6cccs6)cccc5[nH]4)c3n2)c1)c1ccccc1
4. O=C(Nc1cncc(-c2ccc3[nH]nc(-c4cc5c(-c6ccccc6F)cccc5[nH]4)c3n2)c1)C1CC1
5. c1cncc(-c2ccc3[nH]nc(-c4cc5c(-c6cccnc6)cccc5[nH]4)c3n2)c1

[6.16, 6.05, 6.35, 6.30, 7.06]

# return pEC50 for each item in the list
1. CS(=O)(=O)NCc1cc(F)cc(-c2cccc3[nH]c(-c4n[nH]c5ccc(-c6cncc(CN7CCC(F)(F)C7)c6)nc45)cc23)c1
2. c1cc(-c2ccoc2)c2cc(-c3n[nH]c4ccc(-c5cn[nH]c5)nc34)[nH]c2c1
3. Cc1ccncc1-c1ccc2[nH]nc(-c3cc4ccccc4[nH]3)c2n1
4. Cc1ncc(-c2ccc3[nH]nc(-c4cc5ccccc5[nH]4)c3n2)n1C
5. CN(C)Cc1cncc(-c2ccc3[nH]nc(-c4cc5c(N6CCCCC6)cccc5[nH]4)c3n2)c1
6. FC1(F)CCN(Cc2cncc(-c3ccc4[nH]nc(-c5cc6c(-c7ccccn7)cccc6[nH]5)c4n3)c2)C1
7. Nc1cncc(-c2ccc3[nH]nc(-c4cc5c(-c6ccncc6)cccc5[nH]4)c3n2)c1

1. 6.83
2. 5.05
3. 5.33
4. 6.55
5. 6.06
6. 6.79
7. 7.39

###

tested on: Wnt activity (Sp5-Luc reporter, SW480 colon carcinoma cells); assay: Wnt activity screening assay: Sp5-Luc reporter gene in SW480 colon carcinoma cells; format: cell-based; conditions: Homo sapiens, overnight incubation, 10-point curve from 10 μM
attribute measured: EC50 (nM)
Give bare numbers, in nM.

Solved entries (count: 4):
c1cc(N2CCCCC2)c2cc(-c3n[nH]c4ccc(-c5cncnc5)nc34)[nH]c2c1 [Compound 195] ... 1180
c1cc(-c2ccoc2)c2cc(-c3n[nH]c4ccc(-c5cncc(OC6CCCCC6)c5)nc34)[nH]c2c1 [Compound 715] ... 6490
c1csc(-c2cccc3[nH]c(-c4n[nH]c5ccc(-c6ccncc6)nc45)cc23)c1 [Compound 354] ... 3600
CC(C)(C)C(=O)Nc1cncc(-c2ccc3[nH]nc(-c4cc5c(-c6cccc(F)c6)cccc5[nH]4)c3n2)c1 [Compound 8] ... 2930

Hi! Can you tell me EC50 for each of these compounds?
1. CN(C)Cc1cncc(-c2ccc3[nH]nc(-c4cc5c(-c6ccc(F)cc6)cccc5[nH]4)c3n2)c1 [Compound 41]
2. Nc1cncc(-c2ccc3[nH]nc(-c4cc5c(-c6ccncc6)cccc5[nH]4)c3n2)c1 [Compound 115]
3. CC(C)Nc1cncc(-c2ccc3[nH]nc(-c4cc5c(-c6cccnc6)cccc5[nH]4)c3n2)c1 [Compound 96]
4. c1ccc(-c2ccc3[nH]nc(-c4cc5c(-c6ccncc6)cccc5[nH]4)c3n2)nc1 [Compound 140]
5. c1cncc(-c2ccc3[nH]nc(-c4cc5ccccc5[nH]4)c3n2)c1 [Compound 256]
6. c1cncc(-c2ccc3[nH]nc(-c4cc5c(N6CCCCC6)cccc5[nH]4)c3n2)c1 [Compound 172]
7. CN(C)CCOc1cncc(-c2ccc3[nH]nc(-c4cc5c(-c6cccnc6)cccc5[nH]4)c3n2)c1 [Compound 591]
8. CN1CCN(c2cccc3[nH]c(-c4n[nH]c5ccc(-c6cncc(NC(=O)CC(C)(C)C)c6)nc45)cc23)CC1 [Compound 240]

1: 362; 2: 67; 3: 107; 4: 3060; 5: 1300; 6: 253; 7: 4280; 8: 2980

Specify measured EC50 for CN(C)CCNc1cc(F)cc(-c2cccc3[nH]c(-c4n[nH]c5ccc(-c6ccccn6)nc45)cc23)c1 [Compound 476] . 4620

Data credit: patent US10226453B2
